# assaySetup: in acetonitrile, 278.15 K
measure: solubility (mole fraction)
Give bare numbers.

Quick one: solubility (mole fraction) for CC(=O)O[C@]1(C(C)=O)CC[C@H]2[C@@H]3C[C@H](C)C4=CC(=O)CC[C@]4(C)[C@H]3CC[C@@]21C ? 0.00283

---

# assaySetup: in isobutyl acetate, 318.15 K
measure: solubility (mole fraction)
Numbers only.

Query: solubility (mole fraction); subject: CC(=O)O[C@]1(C(C)=O)CC[C@H]2[C@@H]3C[C@H](C)C4=CC(=O)CC[C@]4(C)[C@H]3CC[C@@]21C 0.00849

---

# assaySetup: in n-propanol, 308.15 K
measure: solubility (mole fraction)
Answers are plain numbers.

Return reported solubility (mole fraction); argument: CC(=O)O[C@]1(C(C)=O)CC[C@H]2[C@@H]3C[C@H](C)C4=CC(=O)CC[C@]4(C)[C@H]3CC[C@@]21C 0.0031

---

# assaySetup: in n-butanol, 283.15 K
measure: solubility (mole fraction)
Give bare numbers.

Looking for the measured solubility (mole fraction) of CC(=O)O[C@]1(C(C)=O)CC[C@H]2[C@@H]3C[C@H](C)C4=CC(=O)CC[C@]4(C)[C@H]3CC[C@@]21C , can you help? 0.000978

---

# assaySetup: in isopropanol, 323.15 K
measure: solubility (mole fraction)
Give bare numbers.

// lookup solubility (mole fraction) for CC(=O)O[C@]1(C(C)=O)CC[C@H]2[C@@H]3C[C@H](C)C4=CC(=O)CC[C@]4(C)[C@H]3CC[C@@]21C 0.00477

---

# assaySetup: in acetonitrile, 303.15 K
measure: solubility (mole fraction)
One number for each entry.

Which solubility (mole fraction) is listed for CC(=O)O[C@]1(C(C)=O)CC[C@H]2[C@@H]3C[C@H](C)C4=CC(=O)CC[C@]4(C)[C@H]3CC[C@@]21C ? 0.00664

---

# assaySetup: in ethanol, 283.15 K
measure: solubility (mole fraction)
Give bare numbers.

Can you look up the measured solubility (mole fraction) of CC(=O)O[C@]1(C(C)=O)CC[C@H]2[C@@H]3C[C@H](C)C4=CC(=O)CC[C@]4(C)[C@H]3CC[C@@]21C for me? 0.000655

---

# assaySetup: in ethanol, 298.15 K
measure: solubility (mole fraction)
Numbers only.

Query (molecule): CC(=O)O[C@]1(C(C)=O)CC[C@H]2[C@@H]3C[C@H](C)C4=CC(=O)CC[C@]4(C)[C@H]3CC[C@@]21C ; field requested: solubility (mole fraction) 0.00135

---

# assaySetup: in isopropyl acetate, 323.15 K
measure: solubility (mole fraction)
Give bare numbers.

Which measured solubility (mole fraction) value corresponds to CC(=O)O[C@]1(C(C)=O)CC[C@H]2[C@@H]3C[C@H](C)C4=CC(=O)CC[C@]4(C)[C@H]3CC[C@@]21C ? 0.00866

---

# assaySetup: in isopropyl acetate, 293.15 K
measure: solubility (mole fraction)
Give bare numbers.

So what does the record say about solubility (mole fraction) for CC(=O)O[C@]1(C(C)=O)CC[C@H]2[C@@H]3C[C@H](C)C4=CC(=O)CC[C@]4(C)[C@H]3CC[C@@]21C ? 0.00367

---

# assaySetup: in isobutanol, 293.15 K
measure: solubility (mole fraction)
Answers are plain numbers.

# query: solubility (mole fraction) of entry CC(=O)O[C@]1(C(C)=O)CC[C@H]2[C@@H]3C[C@H](C)C4=CC(=O)CC[C@]4(C)[C@H]3CC[C@@]21C 0.00157

---

# assaySetup: in n-butyl acetate, 293.15 K
measure: solubility (mole fraction)
Answers are plain numbers.

Name the reported solubility (mole fraction) value associated with the compound CC(=O)O[C@]1(C(C)=O)CC[C@H]2[C@@H]3C[C@H](C)C4=CC(=O)CC[C@]4(C)[C@H]3CC[C@@]21C 0.00462

---

# assaySetup: in n-butanol, 298.15 K
measure: solubility (mole fraction)
One number for each entry.

Which solubility (mole fraction) value is on record for CC(=O)O[C@]1(C(C)=O)CC[C@H]2[C@@H]3C[C@H](C)C4=CC(=O)CC[C@]4(C)[C@H]3CC[C@@]21C ? 0.0022

---

# assaySetup: in ethyl acetate, 323.15 K
measure: solubility (mole fraction)
One number for each entry.

Recorded solubility (mole fraction) for CC(=O)O[C@]1(C(C)=O)CC[C@H]2[C@@H]3C[C@H](C)C4=CC(=O)CC[C@]4(C)[C@H]3CC[C@@]21C , please? 0.0118

---

# assaySetup: in acetone, 293.15 K
measure: solubility (mole fraction)
Give bare numbers.

// solubility (mole fraction) lookup, key: CC(=O)O[C@]1(C(C)=O)CC[C@H]2[C@@H]3C[C@H](C)C4=CC(=O)CC[C@]4(C)[C@H]3CC[C@@]21C 0.00716

---

# assaySetup: in methyl acetate, 303.15 K
measure: solubility (mole fraction)

Find the recorded solubility (mole fraction) belonging to CC(=O)O[C@]1(C(C)=O)CC[C@H]2[C@@H]3C[C@H](C)C4=CC(=O)CC[C@]4(C)[C@H]3CC[C@@]21C and report it. 0.00748

---

# assaySetup: in methanol, 293.15 K
measure: solubility (mole fraction)
Answers are plain numbers.

GET /values?readout=solubility (mole fraction)&item= CC(=O)O[C@]1(C(C)=O)CC[C@H]2[C@@H]3C[C@H](C)C4=CC(=O)CC[C@]4(C)[C@H]3CC[C@@]21C 0.0011

---

# assaySetup: in methyl acetate, 278.15 K
measure: solubility (mole fraction)
One number for each entry.

solubility (mole fraction) for CC(=O)O[C@]1(C(C)=O)CC[C@H]2[C@@H]3C[C@H](C)C4=CC(=O)CC[C@]4(C)[C@H]3CC[C@@]21C ? 0.00351

---

# assaySetup: in isopropyl acetate, 283.15 K
measure: solubility (mole fraction)
Numbers only.

What measured solubility (mole fraction) goes with CC(=O)O[C@]1(C(C)=O)CC[C@H]2[C@@H]3C[C@H](C)C4=CC(=O)CC[C@]4(C)[C@H]3CC[C@@]21C ? 0.00273

---

# assaySetup: in acetone, 278.15 K
measure: solubility (mole fraction)
Give bare numbers.

What solubility (mole fraction) value was documented for this molecule, CC(=O)O[C@]1(C(C)=O)CC[C@H]2[C@@H]3C[C@H](C)C4=CC(=O)CC[C@]4(C)[C@H]3CC[C@@]21C ? 0.00469

---

# assaySetup: in n-propyl acetate, 318.15 K
measure: solubility (mole fraction)
Answers are plain numbers.

Returns the measured solubility (mole fraction) for the input compound. Input: CC(=O)O[C@]1(C(C)=O)CC[C@H]2[C@@H]3C[C@H](C)C4=CC(=O)CC[C@]4(C)[C@H]3CC[C@@]21C 0.0105

---

# assaySetup: in n-propanol, 303.15 K
measure: solubility (mole fraction)
Numbers only.

Look up solubility (mole fraction) for this molecule: CC(=O)O[C@]1(C(C)=O)CC[C@H]2[C@@H]3C[C@H](C)C4=CC(=O)CC[C@]4(C)[C@H]3CC[C@@]21C 0.00245

---

# assaySetup: in ethanol, 308.15 K
measure: solubility (mole fraction)
Answers are plain numbers.

Which solubility (mole fraction) value belongs to CC(=O)O[C@]1(C(C)=O)CC[C@H]2[C@@H]3C[C@H](C)C4=CC(=O)CC[C@]4(C)[C@H]3CC[C@@]21C ? 0.00211

---

# assaySetup: in isopropanol, 308.15 K
measure: solubility (mole fraction)
Answers are plain numbers.

I would be grateful if you could share the reported solubility (mole fraction) for CC(=O)O[C@]1(C(C)=O)CC[C@H]2[C@@H]3C[C@H](C)C4=CC(=O)CC[C@]4(C)[C@H]3CC[C@@]21C . 0.00217

---

# assaySetup: in methyl acetate, 293.15 K
measure: solubility (mole fraction)

For the compound shown here, CC(=O)O[C@]1(C(C)=O)CC[C@H]2[C@@H]3C[C@H](C)C4=CC(=O)CC[C@]4(C)[C@H]3CC[C@@]21C , give the reported solubility (mole fraction). 0.00557

---

# assaySetup: in n-propyl acetate, 293.15 K
measure: solubility (mole fraction)

Item CC(=O)O[C@]1(C(C)=O)CC[C@H]2[C@@H]3C[C@H](C)C4=CC(=O)CC[C@]4(C)[C@H]3CC[C@@]21C has what recorded solubility (mole fraction)? 0.00517

---

# assaySetup: in n-propyl acetate, 308.15 K
measure: solubility (mole fraction)
Give bare numbers.

Please look up its solubility (mole fraction): CC(=O)O[C@]1(C(C)=O)CC[C@H]2[C@@H]3C[C@H](C)C4=CC(=O)CC[C@]4(C)[C@H]3CC[C@@]21C 0.00791

---

# assaySetup: in methanol, 278.15 K
measure: solubility (mole fraction)
Answers are plain numbers.

Need solubility (mole fraction), item CC(=O)O[C@]1(C(C)=O)CC[C@H]2[C@@H]3C[C@H](C)C4=CC(=O)CC[C@]4(C)[C@H]3CC[C@@]21C 0.000588

---

# assaySetup: in isopropyl acetate, 318.15 K
measure: solubility (mole fraction)
Numbers only.

// lookup solubility (mole fraction) for CC(=O)O[C@]1(C(C)=O)CC[C@H]2[C@@H]3C[C@H](C)C4=CC(=O)CC[C@]4(C)[C@H]3CC[C@@]21C 0.00751
